Molecular target: Histone-lysine N-methyltransferase EHMT2 (Homo sapiens) (UniProt Q96KQ7)
Sequence (Q96KQ7 913-1193 limits assumed): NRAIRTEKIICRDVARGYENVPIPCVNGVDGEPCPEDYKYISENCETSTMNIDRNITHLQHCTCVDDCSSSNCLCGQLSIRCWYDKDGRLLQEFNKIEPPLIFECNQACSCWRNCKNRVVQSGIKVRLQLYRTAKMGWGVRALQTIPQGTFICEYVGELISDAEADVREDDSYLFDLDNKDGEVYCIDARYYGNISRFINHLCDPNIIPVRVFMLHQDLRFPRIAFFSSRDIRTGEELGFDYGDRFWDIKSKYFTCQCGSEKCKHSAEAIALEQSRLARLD
Test: qHTS Assay for Inhibitors of Histone Lysine Methyltransferase G9a; note: nearly all actives have a fitted effect of over 75% in size
Conditions: G9a H3K9 monomethylation, AlphaScreen, 2 h; series mostly up to 59 µM
In all, about 350,000 compounds went through this assay and about 31,000 (8.9%) were called active. Not shown: some 15% with an inconclusive outcome. Calls come from the whole dose curve; as a rule, active = well fitted inhibition curve with a large enough effect; inconclusive = small, poorly fitted or top-dose-only effect; inactive = no such curve, though single readings can be large or run the other way. Many of the other results were omitted from the sample, so actives are more common in it than they were.
Outcomes: active, inactive

>  <molecule>
Cc1cc(C)cc(OCC(=O)Nc2nc(-c3ccc(F)cc3)ns2)c1

>  <label-value>
inactive

$$$$
>  <molecule>
O=C(CSCc1cnn(-c2ccccc2)c1-n1cccc1)NCc1ccc(Cl)cc1

>  <label-value>
inactive

$$$$
>  <molecule>
O=C(O)c1ccc(NS(=O)(=O)c2ccc3c(c2)C(=O)c2cc(S(=O)(=O)Nc4ccc(C(=O)O)cc4)ccc2-3)cc1

>  <label-value>
active

$$$$
>  <molecule>
Nc1nc(SCc2cccc(Br)c2)n[nH]1

>  <label-value>
active

$$$$
>  <molecule>
CCOC(=O)c1ccc(NC2Nc3cc(C)nn3S2)cc1 (centres undefined)

>  <label-value>
active

$$$$
>  <molecule>
C#CCNc1ccc(C(=O)OCC)cc1

>  <label-value>
inactive

$$$$
>  <molecule>
CCOC(=O)c1cc2c(=O)n3ccccc3nc2n(Cc2ccco2)c1=NC(=O)c1ccc(F)cc1

>  <label-value>
inactive

$$$$
>  <molecule>
CC1CCN(S(=O)(=O)c2ccc3c(c2)N(CC(=O)NCc2ccccc2Cl)C(=O)CO3)CC1

>  <label-value>
inactive

$$$$
>  <molecule>
COc1ccc(S(=O)(=O)NCc2cccn2Cc2cccc(C)c2)cc1Cl

>  <label-value>
inactive

$$$$
>  <molecule>
CC(=O)c1ccccc1OCc1ccc(C(=O)c2ccccc2)cc1

>  <label-value>
inactive

$$$$
>  <molecule>
CCOc1ccc(NC(=O)C2CCN(S(=O)(=O)c3cc(-c4noc(C)n4)ccc3C)CC2)cc1

>  <label-value>
inactive

$$$$
>  <molecule>
Cc1ccc(Cn2c(=O)n(-c3ccc(C)cc3)c(=O)c3c2c2cc(C)ccc2n3C)cc1

>  <label-value>
inactive

$$$$
>  <molecule>
CCCCn1c(SCC(=O)N2CCOCC2)nc2c1c(=O)n(C)c(=O)n2C

>  <label-value>
inactive

$$$$
>  <molecule>
Cc1cccc(-c2nnc(SCC(=O)N3CCCc4ccccc43)o2)c1

>  <label-value>
inactive

$$$$

---

Target: Histone-lysine N-methyltransferase EHMT2 (Homo sapiens) (UniProt Q96KQ7)
Assay: qHTS Assay for Inhibitors of Histone Lysine Methyltransferase G9a; note: nearly all actives have a fitted effect of over 75% in size; for activity, negative = inhibition: % is set by controls: 0 for no effect and ±100 for the full control effect
Conditions: G9a H3K9 monomethylation, AlphaScreen, 2 h; series mostly up to 59 µM
In all, about 350,000 compounds went through this assay and about 31,000 (8.9%) were called active. Inconclusive results (about 15%) are left out. For the sample, actives were picked, then their nearest neighbours and some compounds at random.
Readings of activity, negative = inhibition for the listed molecules

>  <molecule>
COCCCNc1nc2c(-c3cccc(C)c3)nnn2c2ccc(Cl)cc12

>  <activity, negative = inhibition>
3.35% [at 0.501 µM] (inactive)

$$$$
>  <molecule>
COc1ccc(S(=O)(=O)Nc2ccc3cn[nH]c3c2)cc1[N+](=O)[O-]

>  <activity, negative = inhibition>
-20.9% [at 12.7 µM] (inactive)

$$$$
>  <molecule>
CCC1CCC2(CC1)NC(=O)N(CC(=O)Nc1ccc(OC)cc1)C2=O (centres undefined)

>  <activity, negative = inhibition>
7.81% [at 0.501 µM] (inactive)

$$$$
>  <molecule>
COc1ccc2[nH]c(=O)c(-c3noc(-c4ccc(F)cc4)n3)cc2c1

>  <activity, negative = inhibition>
-36.9% [at 12.7 µM] (inactive)

$$$$
>  <molecule>
COc1cccc(CNC(=O)C(=O)NCCC2CCCCN2S(=O)(=O)c2ccc(C)cc2)c1 (centres undefined)

>  <activity, negative = inhibition>
0.971% [at 0.501 µM] (inactive)

$$$$
>  <molecule>
COc1cc(-c2nn3c(-c4cccc(C)c4)nnc3s2)cc(OC)c1OC

>  <activity, negative = inhibition>
-23.6% [at 12.7 µM] (inactive)

$$$$
>  <molecule>
COc1ccc([C@H]2CC(=O)C=C(c3ccc(OC(F)(F)F)cc3)C2)cc1OC

>  <activity, negative = inhibition>
-10% [at 2.33 µM] (inactive)

$$$$
>  <molecule>
CCOc1ccc(S(=O)(=O)NCCC(=O)NCC(C)(C)N2CCOCC2)cc1

>  <activity, negative = inhibition>
14% [at 0.501 µM] (inactive)

$$$$
>  <molecule>
Cc1ccccc1NC(=O)Cc1nc(COC(=O)c2ccc(C(F)(F)F)cc2)cs1

>  <activity, negative = inhibition>
5.04% [at 12.7 µM] (inactive)

$$$$
